Target: T1, purified recombinant 161P2F10B extracellular domain (Tag5-161P2F10B ECD, amino acids 46-875) (human, UniProt O14638 46-875)
T1 construct: also called full length ECD
Test: SPR (BIAcore), MAb captured on chip, recombinant 161P2F10B injected, 1:1 fit;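 further: purified human MAbs immobilised by capture on a CM5 chip surface, about 150 RU of antibody per cycle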
quantityName: Kd (nM)
Reply with just the number (in nM).

>  <binder>
Ha16-1(3,5)56 (antibody, V domains shown) VH: RCRLVESGAEVKKPGESLKISCKGSGYRFTSYWIGWVRQMPGKGLEWMGIIYPGDSDTRYSPSFQGQVTISADKSISTAYLQWRSLKASDTAMYYCARKDYYYYVMDVWGQGTTVTVSS VL: DTISCTGTSSDVGNYNYVSWYQQHPGKAPKLMIYAVNNRPSGVSNRFSGSKSGNTASLTISGLQAEDEADYYCSSYTSSRNLVVFGGGTKLTVLG

>  <quantityName>
Kd

>  <unitAbbreviation>
nM

>  <recordedResult>
14.5

$$$$

Here is another binder to look at.
So what does the record say about Kd for H16-1.68 (antibody, V domains shown) VH: EVHLVESGGGVVQPGRSLRLSCAASGFTFRSYGMHWVRQAPGKGLEWVAVIWYDGSNKYYADSVKGRFTISRDNSKNTLYLQMNSLRAEDMAMYYCARSRITIFGVVHYGMDVWGQGTTVTVSS VL: TQLTQSPSSLSASVGDRVTITCRASQNINSYLNWYQQKPGKAPKLLIYAASSLQSGVPSRFSGSGSGTDFTLTISSLQPEDFTTYYCQQSYSSAPTFGGGTKLEIKR ?
2.3
